test system: TXK; conditions: concentration: 1 μM, replicates: in singlicate; n = 1;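 note: KINOMEscan kinase panel screen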
Consider the following molecules and their measured %Inh readings.
# include the unit after the value

Worked examples follow.
>>> result("CN(c1ccc(NC(=O)Nc2cccc(Cl)c2)cc1)c1ccnc(N)n1.Cl")
"0%"
>>> result("COc1cccc(NC(=O)NCCNc2ccnc(Nc3ccc(F)cc3)n2)c1")
"4%"

[in] Which %Inh is reported for this molecule? Cn1cc(-c2ccc3c(c2)CCN3C(=O)Cc2cc(F)cc(C(F)(F)F)c2)c2c(N)ncnc21
[out] 0%

[in] Would you mind doing CC(=O)Nc1cn2nc(Oc3cccc(NC(=O)c4cccc(C(F)(F)F)c4)c3)ccc2n1 as well?
[out] 61%
